Assay: Human HepG2 cell viability assay in 384 well format
Format: toxicity, cell-based
Design: dose 125 nL, time 70.5 hour; concentration not given beside the values
Settings: HepG2 cells, read-out: Inhibition
PROPERTY_NAME: cytotoxicity at 70.5 h (%)
Numeric answer only, unit % assumed.

Sample answers from the record:
COMPOUND	cytotoxicity at 70.5 h / %
Cc1nccnc1N1CCC2(CCCN(C3CCOCC3)C2=O)C1 (stereo not given)	7.43
Cc1nc(NCc2ccc(C)o2)cc(C2CCNCC2)n1	-23.6
CSCc1cc(F)ccc1CNCc1ccncc1	4.11

Ask | Which value of cytotoxicity at 70.5 h has been reported for CC(C)(C)c1nc(CC(=O)N2CCCC(n3cncn3)C2)cs1 (stereo not given) in the records?
Reply | -1.77

Ask | Any idea what cytotoxicity at 70.5 h was measured for Cc1nc(N2CCN(C)CC2)ncc1C(=O)N1CC[C@](C)(O)[C@H](C)C1 ?
Reply | -7.36

Ask | Item under review: Cc1ccc(NC(=O)C2CSCN2C(=O)c2cnccn2)c(C)c1 (stereo not given) . Reported cytotoxicity at 70.5 h?
Reply | -5.93

Ask | Can you share its cytotoxicity at 70.5 h? I mean this compound: CO[C@H]1CN(C(C)C)C[C@@H]1NC(=O)Nc1ccc(C(F)(F)F)cc1
Reply | -5.18

Ask | Recorded cytotoxicity at 70.5 h for Cc1oc(-c2ccsc2)nc1CN1CC[C@@H]2CCCC[C@H]2C1 , please?
Reply | 13.8
